# TEST NAME: Quantitative High-Throughput drug screen in 47 multiple myeloma cell lines against the NCATS MIPE library collection: RPMI8226_ATCC cell viability assay (AID 1919871); note: nearly all actives have a fitted effect of over 30% in size; note: potency is the fitted concentration of half-maximal effect
# SETUP CONDITIONS: RPMI8226 myeloma viability, CellTiter-Glo ATP luminescence, 48 h; series mostly up to 45.8 µM
Records with an inconclusive call do not appear. The source made the active and inactive calls. Calls come from the whole dose curve; as a rule, active = well fitted cell-killing curve with a large enough effect; inconclusive = small, poorly fitted or top-dose-only effect, or effect the other way; inactive = no such curve, though single readings can be large or run the other way.
READOUT NAME: Potency

Can you look up the measured Potency of O=c1[nH]c2ccccc2n1C1CCN(Cc2ccc(-c3[nH]c4cc5ncnc5cc4nc3-c3ccccc3)cc2)CC1 for me?
13.2 µM (active)

Quick one: Potency of CC(=CCCC1=CCC(C2=CC(=O)OC2O)OC1O)CCC1=C(C)CCCC1(C)C (stereo not drawn) ?
0.0118 µM (active)

Quick check: Potency of CC(C)[C@]12O[C@@H]1[C@@H]1O[C@]13[C@]1(O[C@H]1C[C@@H]1C4=C(CC[C@@]13C)C(=O)OC4)[C@H]2O ?
inactive

So what's the measured Potency for this one? CCOP(=O)(OCC)C(C)NC(=O)N(CCCl)N=O (stereo not drawn)
inactive

For the compound shown here, C[C@]12COC(=O)C[C@@H]1CC[C@@H]1[C@H]2CC[C@@]2(C)[C@H]1CC[C@]2(C)O , give the reported Potency.
inactive

Further cases:
Consider the compound c1ccc2c(CN3CCNCC3)cccc2c1 and give its measured Potency.
inactive

Which Potency is reported for this compound? C#C[C@]1(O)C=C[C@@H]2[C@@H]3CCC4=CC(=O)CC[C@@H]4[C@H]3CC[C@@]21CC
inactive

State the recorded Potency for this entry: CC(O)=C(C#N)C(=O)Nc1cc(Br)ccc1Br
11.8 µM (active)

Give the measured Potency of CC(C)(O)C=CC(=O)[C@](C)(O)[C@H]1[C@H](O)C[C@]2(C)[C@@H]3CC=C4[C@@H](C=C(O)C(=O)C4(C)C)[C@]3(C)C(=O)C[C@@]12C .
0.0526 µM (active)

What measured Potency goes with C1=C2CCCN[C@H]2[C@@H]2C[C@H]1[C@@H]1CCCCN1C2 ?
inactive

What value of measured Potency is listed for CCN1C[C@]2(OC(=O)c3ccccc3NC(C)=O)CC[C@H](OC)[C@@]34[C@H]5CC6[C@@H](OC)C[C@](O)(C(C[C@@H]23)[C@@H]14)[C@@]5(O)[C@@H]6OC ?
inactive

Recorded Potency for CCNC(=O)C[C@@H]1N=C(c2ccc(Cl)cc2)c2cc(OC)ccc2-n2c(C)nnc21 , please?
1.18 µM (active)

Endpoint output: Potency of N#C[C@H](O[C@@H]1O[C@H](CO[C@@H]2O[C@H](CO)[C@H](O)[C@H](O)[C@H]2O)[C@H](O)[C@H](O)[C@H]1O)c1ccccc1 . Value?
23.5 µM (active)

What value of measured Potency is listed for CO[C@H]1CCC(O[C@H]2C[C@H]([C@]3(C)CC[C@]4(C[C@H](O)[C@@H](C)[C@@H]([C@@H](C)C=C(C)C(=O)[C@H](C)C[C@H](C)C(=O)O)O4)O3)O[C@]3(O[C@@H]([C@H]4O[C@@](O)(CO)[C@H](C)C[C@H]4C)C[C@H]3C)[C@H]2C)O[C@H]1C (stereo partly drawn) ?
0.935 µM (active)

Form field: reported Potency of O=C(NCC1CCOCC1)c1cnc(Nc2ccc(Cl)cc2Cl)nc1C(F)(F)F
inactive

Request the reported Potency associated with CC(=Cc1csc(C)n1)[C@@H]1C[C@H]2O[C@@H]2CCC[C@H](C)[C@@H](O)[C@@H](C)C(=O)C(C)(C)[C@@H](O)CC(=O)O1
inactive

Which Potency value belongs to O=C(Oc1ccc([N+](=O)[O-])cc1)N1CCN(Cc2cccc(Oc3ccccc3)c2)CC1 ?
inactive

For the compound Clc1ccccc1C(c1ccccc1)(c1ccccc1)n1cccn1 , what Potency is on record?
20.9 µM (active)

Can you share its Potency? I mean this compound: NC1CC1c1ccccc1 (stereo not drawn)
inactive

So what does the record say about Potency for CC1(N2CCC(n3c([C@@H]4CCCNC4)nc4ccccc43)CC2)CCCCCCC1 ?
20.9 µM (active)

Can you look up the measured Potency of c1ccc(CCCN2CCN(CCOC(c3ccccc3)c3ccccc3)CC2)cc1 for me?
20.9 µM (active)

Given C=C[C@@H]1CN2CCC1C[C@H]2[C@H](O)c1ccnc2ccccc12 (stereo partly drawn) , state its recorded Potency.
18.7 µM (active)

Consider the compound CC[C@@]1(O)C(=O)OCc2c1cc1n(c2=O)Cc2cc3ccccc3nc2-1 and give its measured Potency.
0.743 µM (active)
